Data origin, for the record: ChEMBL document CHEMBL5131497

- protocolDetails: Drug distribution in Sprague-Dawley rat plasma measured at 2 hrs
- Format: ADME, cell-free
parameterMeasured: concentration at 2 h (ng/mL)
# number only, unit ng/mL dropped from output

Query :: Any idea what concentration at 2 h was measured for CO[C@H]1/C=C/O[C@@]2(C)Oc3c(C)c(O)c4c(c3C2=O)C2=NC3(CCN(CCn5c([N+](=O)[O-])cnc5C)CC3)NC2=C(NC(=O)/C(C)=C\C=C\[C@H](C)[C@H](O)[C@@H](C)[C@@H](O)[C@@H](C)[C@H](OC(C)=O)[C@@H]1C)C4=O [RIFASUTENIZOL] ?
Result :: 2640

====

- protocolDetails: Drug distribution in Sprague-Dawley rat vaginal secretion measured at 12 hrs
- Type: ADME, tissue-based, Vaginal fluid
- testParameters: female, read-out: Ct
parameterMeasured: concentration at 12 h (ng/g)
Field format: number, assumed ng/g, no unit text.

Query :: What measured concentration at 12 h goes with `CO[C@H]1/C=C/O[C@@]2(C)Oc3c(C)c(O)c4c(c3C2=O)C2=NC3(CCN(CCn5c([N+](=O)[O-])cnc5C)CC3)NC2=C(NC(=O)/C(C)=C\C=C\[C@H](C)[C@H](O)[C@@H](C)[C@@H](O)[C@@H](C)[C@H](OC(C)=O)[C@@H]1C)C4=O` ?
Result :: 366
